# System: THRa homodimer (NR concentration 90 nM)
# protocol-details: PBM binding z-score (relative to random genomic background probes); higher = stronger binding; sequences stand for … in GC…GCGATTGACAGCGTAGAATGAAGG
readout-label: PBM binding z-score

Any idea what PBM binding z-score was measured for "CCTACTCGGCCAAAGGTCATTGATTCCAATGCTC" ?
1.46

Any idea what PBM binding z-score was measured for "CCGAGTAGGTGATGGGGCATTCAGGCAACGGTGA" ?
-0.0233

Any idea what PBM binding z-score was measured for "CCTTACGGGTCACTGACAGGTTATATCATTTGGA" ?
0.162

---

# Test system: PXR:RXRa (NR concentration 270 nM, RXRa partner concentration 90 nM)
# protocol-details: PBM binding z-score (relative to random genomic background probes); higher = stronger binding; sequences stand for … in GC…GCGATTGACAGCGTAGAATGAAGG
Values of PBM binding z-score greater than or equal to 3 map to MET; values below map to NOT MET.

For this sequence, is measured PBM binding z-score 3 or higher? "AGAATGAGGTTAAGATCAGGGATACAGAATACAT"
NOT MET

For this sequence, is measured PBM binding z-score 3 or higher? "TAGCCTAGGTCATGCGCGCCAGTATAGTGTCGGC"
NOT MET

For this sequence, is measured PBM binding z-score 3 or higher? "TTACCAAGGTGAAAGGTCGTTTATGCACGCCTTG"
MET

For this sequence, is measured PBM binding z-score 3 or higher? "CTTCCAAGGTCAGCAGGTCAGTGAAAGCGACGTG"
MET

For this sequence, is measured PBM binding z-score 3 or higher? "ATATGTAGGTTACATCCGGGTCATTGAGGCTATG"
MET

For this sequence, is measured PBM binding z-score 3 or higher? "CATAGTTGGTCAGGAGGTCACACACCGGATATGA"
MET

For this sequence, is measured PBM binding z-score 3 or higher? "TCATATATGTAAAGGTGAAAGTCGAACGATATGA"
NOT MET

For this sequence, is measured PBM binding z-score 3 or higher? "ATCTCTAGGTAAAGTTGAGTGAAAGATCGATAGA"
NOT MET

---

# System: VDR:RXRa (NR concentration 270 nM, RXRa partner concentration 90 nM)
# protocol-details: PBM binding z-score (relative to random genomic background probes); higher = stronger binding; sequences stand for … in GC…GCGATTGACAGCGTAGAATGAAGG
Category key, based on recorded PBM binding z-score: zone 1: < 0.5; zone 2: ≥ 0.5 and < 2; zone 3: ≥ 2

Please let me know in which category the item "CGTCCAATGTCAATGCTAGGTCAGTGAAAGCATT" belongs.
zone 2

Please let me know in which category the item "GCATATAGGTAATACAAGGTGAAACTCCGATTGT" belongs.
zone 2

Please let me know in which category the item "CCTACTGGGCCAAAGGTCATTAATTCCAATGCTC" belongs.
zone 3

Please let me know in which category the item "TTACCAAGGTGAGATGAGGTCGTTGATCCAACTC" belongs.
zone 3

Please let me know in which category the item "ATAGGTAGGTTAAGGGTCATTCAGGTTGGTTCGC" belongs.
zone 3

Please let me know in which category the item "GCTCGGAGGACAAGATCAGAGCTTTGTCCGTAGA" belongs.
zone 1

Please let me know in which category the item "TCTATTAGTTGATTAGAGCAACCGAAACAGCGGA" belongs.
zone 1

Please let me know in which category the item "ATATGTAGGTTAGCTGGGGGCATTCAGACTAGGC" belongs.
zone 3

Please let me know in which category the item "TCTTGTAGATCAAAGGTTTAGAAAGCCGAAGCCT" belongs.
zone 1

Please let me know in which category the item "AGAACGAGGGCACGCCGAGTTGATAGCAGAGTAG" belongs.
zone 3

Please let me know in which category the item "ATCGAAGGGTCGTGAGGTGAGTATACAGAAAGGC" belongs.
zone 3

Please let me know in which category the item "CGTCCAAGGTAAAGGTCAGTGAAAGAGACTCGAA" belongs.
zone 3

Please let me know in which category the item "CACGAAAGGTCGGTTGAGGTGAGTATACGGATAA" belongs.
zone 3

Please let me know in which category the item "CAAACTAGGTCAAAAGTCAAAGTCGAGCCAACCA" belongs.
zone 3

Please let me know in which category the item "TTTTGTAGATCAAAGGTTAAGAAAGCCGAAGCCT" belongs.
zone 2

Please let me know in which category the item "CAGCCTAGGTCAGGGCCAGTAGAGGAGGAACGTT" belongs.
zone 1

Please let me know in which category the item "ATCTCTAGGTAAAGATAGTTTAGTGAATGCAAAT" belongs.
zone 1

Please let me know in which category the item "GCTCGGAGGACTAGGTCAGAGCTTTGTCCGTAGA" belongs.
zone 1

Please let me know in which category the item "CATACAGGGTCAGCTAGGCCAGATTAGGGACGGC" belongs.
zone 3

Please let me know in which category the item "ACTTACGGGTCAACGAGGTTATAACACGCGTATA" belongs.
zone 3

Please let me know in which category the item "GCTGCTCGGTCAGGTTGGTCAGCTAACGGGTACG" belongs.
zone 1

Please let me know in which category the item "AGAACGAGGGCAATGAGTCGATAGCACGGGTGGC" belongs.
zone 3

Please let me know in which category the item "CAAACTAGGTCAAGAGGTCAAAGACCGCTTCCCG" belongs.
zone 3

Please let me know in which category the item "CCGAGTAGGTTATGGGGCAATCAGGCAACGGTGA" belongs.
zone 1

Please let me know in which category the item "TCATATAGGGAAAAGGTGAAAGTCGGTGTGGTAA" belongs.
zone 2

Please let me know in which category the item "AGAACGAAGGCACGCTGAGTTGATAGCAGAGTAG" belongs.
zone 1
